Test system: Fusarium nivale (var. majus)
protocol-notes: Fusarium nivale (var. majus) test (wheat)/protective
Assay type: in vivo
cond: 1000 ppm active compound, protective, evaluation 5 days after inoculation

# smiles-structure, measurement-unit, efficacy in %
measured = [
    ("CCC(=O)Nc1cc(-c2c(-c3ccc(F)cc3)nn3c2CCC3)ccn1", "%", 100),
    ("CC(C)(O)C(=O)Nc1cc(-c2c(-c3ccc(F)cc3)nn3c2CCCC3)ccn1", "%", 100),
    ("O=C(Nc1cc(-c2c(-c3ccccc3)nn3c2CCCC3)ccn1)C1CC1", "%", 100),
    ("O=CNc1cc(-c2c(-c3ccccc3)nn3c2CCCC3)ccn1", "%", 86),
    ("CC(=O)Nc1cc(-c2c(-c3ccc(F)cc3)nn3c2CCCC3)ccn1", "%", 100),
]
